Listing: GI50 of selected molecules
- System: T-47D breast
- Assay info: NCI tumour cell line growth inhibition, 48 h

Below: 3 molecules and their reported GI50.
1. Cc1cc(Cl)ccc1NC(=O)c1cc2ccccc2cc1O
0.852 µM
2. C=C1CCC2C(C)(C)CCC[C@]2(C)[C@H]1CO (stereo partly specified)
41.7 µM
3. Cn1ccnc1C(=O)/C=C/c1ccccc1
2.78 µM

Query for T-47D breast: what GI50 does the record show for CCN(C(=O)c1cc(F)ccc1Oc1cncnc1N1CC2(CCN(CC3CCC(NS(=O)(=O)CC)CC3)CC2)C1)C(C)C (stereo unspecified) ?
> 100 µM

Query for T-47D breast: what GI50 does the record show for CN1c2ccccc2C(C)(C)C12C=Cc1cc(O)ccc1O2 (stereo unspecified) ?
4 µM

Query for T-47D breast: what GI50 does the record show for COc1cc(C2=C(C#Cc3ccccc3)COC2=O)cc(OC)c1OC ?
13.3 µM

* * *

- Test system: NCI-H23 lung
- Assay info: NCI tumour cell line growth inhibition, 48 h
Readout type: TGI (µM)
Please state the figure in µM; there is no need to write the unit.

1) CN(CC(=O)N(Cc1ccc(C2CCCCC2)cc1)c1ccc(C(=O)O)c(O)c1)S(=O)(=O)c1c(F)c(F)c(F)c(F)c1F
26.9
2) CC(C)CCN=C(N)c1ccc(N2CCN(c3ccc(C(N)=NCCC(C)C)cc3)CC2)cc1
17.8
3) O=C1CCCC/C1=C\c1ccc(Br)cc1
33.2
4) CN1CCC(CN2c3ccccc3Sc3ccccc32)CC1
30
5) O=C(/C=C/c1cc(O)c(O)cc1O)OCCc1ccccc1
53.1
6) Brc1ccc2c([C@H]3CN[C@@H](c4c[nH]c5cc(Br)ccc45)CN3)c[nH]c2c1
8.95
7) Nc1nc(-c2ccccc2)nc(N)c1N=O
41.9
8) CO/N=C(\C)COc1ccc2c(=O)c(-c3ccccc3)coc2c1
89

Can you look up the measured TGI of O=[N+]([O-])c1cccc(C2ON2C2CCCCC2)c1 (stereo unspecified) for me?
45.1

* * *

Listing: TGI of selected compounds
- Tested on: SNB-78 CNS
- Assay info: NCI tumour cell line growth inhibition, 48 h

Below: 2 compounds and their reported TGI.
1. Cc1cc(C)nc(NS(=O)(=O)c2ccc(Nc3c4ccc(Cl)cc4nc4c(C(=O)Nc5ccc(S(N)(=O)=O)cc5)cccc34)cc2)n1
> 100 µM
2. CCc1cccc(C(C)C)c1NC(=O)C(=O)C(CC(=O)Nc1ccc(Cl)c(Cl)c1)C(=O)OC (stereo not drawn)
> 100 µM

Proceeding to the next compound to report its TGI.
Can you look up the measured TGI of C=C(Br)N(CC)CC for me?
> 100 µM

* * *

Listing: TGI of selected molecules
- Tested on: HOP-62 NSCLC
- Assay info: NCI tumour cell line growth inhibition, 48 h

1) CC1(CCCO)CCCCCCCCCC(C)(CCCO)C1=O (stereo not given)
> 100 µM
2) Cc1cc(Cl)ccc1NC(=O)c1cc2ccccc2cc1O
> 100 µM

Proceeding to the next molecule to report its TGI.
Can you look up the measured TGI of CC(C)(C)c1cc2c3c(c1)C(C(F)(F)F)(C(F)(F)F)O[Te]3(C)OC2(C(F)(F)F)C(F)(F)F for me?
> 100 µM
